// provenance: ChEMBL document CHEMBL1144284

# MEASURED TARGET: Alpha-1A adrenergic receptor (Homo sapiens)
# Sequence (P35348 whole entry): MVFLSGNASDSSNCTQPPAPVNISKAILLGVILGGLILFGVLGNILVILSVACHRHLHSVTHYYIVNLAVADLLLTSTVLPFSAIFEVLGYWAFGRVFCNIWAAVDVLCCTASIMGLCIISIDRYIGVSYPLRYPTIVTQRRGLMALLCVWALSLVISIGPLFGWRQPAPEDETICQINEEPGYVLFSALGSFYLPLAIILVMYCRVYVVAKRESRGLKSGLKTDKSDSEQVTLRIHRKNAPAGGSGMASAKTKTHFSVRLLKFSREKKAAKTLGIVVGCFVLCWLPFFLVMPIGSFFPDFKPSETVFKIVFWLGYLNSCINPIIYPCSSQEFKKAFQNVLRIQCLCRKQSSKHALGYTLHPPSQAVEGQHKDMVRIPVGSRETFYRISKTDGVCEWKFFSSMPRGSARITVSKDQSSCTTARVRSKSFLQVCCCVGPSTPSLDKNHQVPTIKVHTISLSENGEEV
# PROTOCOL NOTES: Binding constant measured against Alpha-1A adrenergic receptor in human prostate; ++:moderately active
# Assay type: tissue-based, Prostate gland
yes if Ki is below 9 nM. no if not; exact matches included in no.

1) COc1ccccc1N1CCN(CCN2C(=O)c3ccccc3C(C)(C)C2=O)CC1	yes
2) COc1ccc(Cl)cc1N1CCN(CCCNc2nccc(C(N)=O)n2)CC1	yes
3) COc1ccccc1N1CCN(CC(O)COc2cccc3ccccc23)CC1 (stereo not given) [NAFTOPIDIL]	yes
4) CCOC(=O)C1CCC(=O)N1CC(=O)CCN1CCN(c2ccccc2OC(C)C)CC1 (stereo not given)	no
5) CC(C)Oc1ccccc1N1CCN(CCNC(=O)CN2CCCCC2=O)CC1 [RWJ-38063]	no
